Target: SUDV GPddmuc (Sudan virus (SUDV), UniProt Q66814 33-650)
Assay: ELISA
Threshold 0.08 nM. EC50 below it: YES. EC50 at it or above: NO.

binder="FVM38 (antibody, V domains shown) VH: QVQLVQSGAEVKRPGESLTISCKTSGYSFTDSWIGWVRQMPGKGLEWMASIYPDDSETKYNPSFQGHVTISADKSVTTTYLKWSSLKASDTATYYCVKGSETWGQGVLVTVSS VL: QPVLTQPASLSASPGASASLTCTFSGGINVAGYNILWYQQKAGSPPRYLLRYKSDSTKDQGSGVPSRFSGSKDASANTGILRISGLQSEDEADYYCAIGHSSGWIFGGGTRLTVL" labelclass=YES
binder="FVM39 (antibody, V domains shown) VH: EVQLVQSGAEVKRPGESLRISCKTSGYSFTDSWISWVRQMPGKGLEWLGSIYPGDSETKYNPSFQGHVTISADKSVTTTYLKWSSLKASDTATYYCVKGSETWGQGVLVTVSS VL: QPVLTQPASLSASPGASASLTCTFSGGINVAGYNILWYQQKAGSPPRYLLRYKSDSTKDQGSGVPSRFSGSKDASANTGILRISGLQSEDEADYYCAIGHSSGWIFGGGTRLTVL" labelclass=YES
binder="FVM32 (antibody, V domains shown) VH: QVQLVQSGAEVKRPGESLRISCKTSGYSFTDSWVAWVRQMPGKGLEWLGSIYPGDSDTRYSPSFQGQVTISADKSITTAYLKWSSLKASDTATYYCVKGSETWGQGVLVTVSS VL: QPVLTQPASLSASPGASASLTCTFNGGITVPGYDILWYQQKSGSPPRYLLRYKSDSTKDQGSGVPSRFSGSKDASTNTGILRISGLQSEDEADYYCAIGHSSGWIFGGGTRLTVL" labelclass=NO
binder="FVM22 (antibody, V domains shown) VH: EVQLVQSGAEVKRPGESLTISCKTSGYSFTDSWVAWVRQMPGKGLEWLGSIYPGDSETKYNPSFQGHVTISADKSISTAYLQWSSLKASDTATYYCAKGSETWGQGVLVTVSS VL: SSGLTQPASLSASPGASASLTCTFSGGINVAGYNILWYQQKAGSPPRYLLRYKSDSTKDQGSGVPSRFSGSKDASANTGILRISGLQSEDEADYYCAIGHSSGWIFGGGTRLTVL" labelclass=NO
binder="FVM06 (antibody, V domains shown) VH: EVQLVQSGAEVKRPGESLTISCKTSGYSFTNYWISWVRQMPGEGLEWMGAIDPSDSDTRYSPSFQGQVTMSADKSITTAYLQWSSLKASDTATYYCVKGSETWGQGVLVTVSS VL: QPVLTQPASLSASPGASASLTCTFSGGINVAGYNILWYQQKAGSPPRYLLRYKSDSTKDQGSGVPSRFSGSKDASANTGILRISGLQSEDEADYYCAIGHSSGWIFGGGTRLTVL" labelclass=YES
binder="FVM24 (antibody, V domains shown) VH: EVQLVQSGAEVKRPGESLKISCKTSGYSFTDSWVAWVRQMPGKGLEWMGSIYPGDFQTRYNPSFQGHVTLSADKSISTTYLQWSSLKASDTATYYCVKGSETWGPGVLVTVSS VL: SSGLTQPASLSASPGASASLTCTFSGGINVAGYNILWYQQKAGSPPRYLLRYKSDSTKDQGSGVPSRFSGSKDVSANTGILRISGLQSDDEADYYCAIGHSSGWIFGGGTRLTVL" labelclass=NO
binder="FVM15 (antibody, V domains shown) VH: QVQLVQSGAEVKRPGESLRISCKTSGYTFTDYWIAWVRQMPGKGLEWMGSIYPGDSETKYNPSFQGHVTISADKSVTTTYLKWSRLKASDTATYYCVKGSETWGQGVLVTVSS VL: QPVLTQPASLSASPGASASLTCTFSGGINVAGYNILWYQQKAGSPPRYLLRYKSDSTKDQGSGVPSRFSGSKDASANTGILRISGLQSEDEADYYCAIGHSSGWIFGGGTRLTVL" labelclass=YES
binder="FVM16 (antibody, V domains shown) VH: EVQLVQSGAEVKRPGESLKISCRTSGYSFTSTWINWVRQMPGKGLEWLGSIYPGDSETKYNPSFQGHVTISADKSVTTTYLKWSSLKASDTATYYCVKGSETWGQGVLVTVSS VL: KPMLTQPASLSASPGASASLTCTFSGGINVAGYNILWYQQKAGSPPRYLLRYKSDSTKDQGSGVPSRFSGSKDASANTGILRISGLQSEDEADYYCAIGHSSGWVFGGGTRLTVL" labelclass=YES
binder="FVM08 (antibody, V domains shown) VH: EVQLVQSGAEVKRPGESLTISCKTSGYSFTDSWVAWVRQMPGKGLEWMGSIYPGDSDTRYNPSFEGQVTISADKSISTTYLQWSSLRASDTATYYCVKGADDWGQGVLVTVSS VL: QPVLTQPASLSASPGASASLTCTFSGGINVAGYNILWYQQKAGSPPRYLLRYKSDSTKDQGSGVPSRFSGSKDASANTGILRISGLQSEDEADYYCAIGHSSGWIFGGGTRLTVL" labelclass=YES
